biological target: rNav1.2 sodium channels (Rattus norvegicus, UniProt P04775); construct: host or cells: HEK-293; experiment: QPatch automated patch clamp, inhibition of sodium currents evoked by 5 Hz trains at three extracellular pH values; type: cell-based; details: pH 6.0/8.6; cc 100 mM
Sequence (P04775 whole entry): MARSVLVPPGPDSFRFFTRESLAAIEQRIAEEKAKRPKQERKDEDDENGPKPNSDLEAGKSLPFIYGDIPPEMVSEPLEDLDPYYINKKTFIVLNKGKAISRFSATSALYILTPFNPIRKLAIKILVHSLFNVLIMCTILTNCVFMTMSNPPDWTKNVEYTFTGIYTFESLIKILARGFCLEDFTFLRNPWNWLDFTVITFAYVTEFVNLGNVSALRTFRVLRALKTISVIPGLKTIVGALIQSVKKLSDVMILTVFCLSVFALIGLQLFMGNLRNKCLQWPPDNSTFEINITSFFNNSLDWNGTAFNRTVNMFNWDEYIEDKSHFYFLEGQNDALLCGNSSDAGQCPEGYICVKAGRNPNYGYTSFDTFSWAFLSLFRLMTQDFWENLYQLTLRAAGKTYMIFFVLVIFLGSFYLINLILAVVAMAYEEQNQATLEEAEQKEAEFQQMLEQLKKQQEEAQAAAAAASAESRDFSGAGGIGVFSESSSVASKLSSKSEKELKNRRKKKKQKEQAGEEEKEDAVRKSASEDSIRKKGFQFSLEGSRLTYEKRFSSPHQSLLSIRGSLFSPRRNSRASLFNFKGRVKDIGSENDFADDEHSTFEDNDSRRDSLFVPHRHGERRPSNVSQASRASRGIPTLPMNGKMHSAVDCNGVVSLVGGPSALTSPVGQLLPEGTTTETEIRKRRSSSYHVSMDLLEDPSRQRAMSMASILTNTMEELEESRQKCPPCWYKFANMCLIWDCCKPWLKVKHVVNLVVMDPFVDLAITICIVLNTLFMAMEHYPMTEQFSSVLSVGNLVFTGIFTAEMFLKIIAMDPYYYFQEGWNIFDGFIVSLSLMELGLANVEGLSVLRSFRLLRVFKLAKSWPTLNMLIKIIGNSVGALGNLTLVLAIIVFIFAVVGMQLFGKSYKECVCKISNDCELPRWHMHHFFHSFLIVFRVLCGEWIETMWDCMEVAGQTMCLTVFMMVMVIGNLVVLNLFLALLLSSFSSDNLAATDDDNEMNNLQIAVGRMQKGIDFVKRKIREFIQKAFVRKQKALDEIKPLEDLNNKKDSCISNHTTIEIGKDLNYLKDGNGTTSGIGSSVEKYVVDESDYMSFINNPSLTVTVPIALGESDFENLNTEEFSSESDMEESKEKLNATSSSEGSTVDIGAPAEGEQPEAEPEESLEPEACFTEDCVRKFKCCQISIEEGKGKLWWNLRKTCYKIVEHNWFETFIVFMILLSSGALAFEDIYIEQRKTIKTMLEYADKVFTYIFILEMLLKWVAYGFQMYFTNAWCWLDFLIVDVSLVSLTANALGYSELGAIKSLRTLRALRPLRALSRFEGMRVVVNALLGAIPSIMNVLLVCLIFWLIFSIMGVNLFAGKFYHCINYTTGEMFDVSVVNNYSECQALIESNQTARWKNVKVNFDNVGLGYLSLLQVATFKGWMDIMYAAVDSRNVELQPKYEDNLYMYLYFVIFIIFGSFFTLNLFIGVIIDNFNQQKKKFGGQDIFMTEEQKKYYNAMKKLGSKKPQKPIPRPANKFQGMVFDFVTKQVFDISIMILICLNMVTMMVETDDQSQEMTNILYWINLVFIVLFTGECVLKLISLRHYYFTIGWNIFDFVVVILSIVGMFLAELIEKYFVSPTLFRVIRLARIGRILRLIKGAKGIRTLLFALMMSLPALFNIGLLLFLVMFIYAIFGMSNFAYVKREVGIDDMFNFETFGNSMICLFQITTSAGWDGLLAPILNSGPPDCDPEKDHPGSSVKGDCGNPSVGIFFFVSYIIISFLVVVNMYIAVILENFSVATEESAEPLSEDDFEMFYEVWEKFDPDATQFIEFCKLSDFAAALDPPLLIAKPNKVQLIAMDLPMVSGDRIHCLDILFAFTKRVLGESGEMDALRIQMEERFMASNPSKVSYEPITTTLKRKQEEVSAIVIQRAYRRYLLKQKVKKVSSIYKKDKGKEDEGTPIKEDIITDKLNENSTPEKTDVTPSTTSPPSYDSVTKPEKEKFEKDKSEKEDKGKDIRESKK
Recorded Ratio Reversibility for the following compounds
Output: the number by itself.

Record excerpt, results attached:
COc1ccccc1OCC(O)CN1CCN(CC(=O)Nc2c(C)cccc2C)CC1 (stereo not drawn)    1.042
Nc1c(Br)cc(Br)cc1CN[C@H]1CC[C@H](O)CC1    1.137
CNCCC(Oc1ccccc1OC)c1ccccc1 (stereo not drawn)    1.973
CCCCN1CCCCC1C(=O)Nc1c(C)cccc1C (stereo not drawn)    1.346
C[Si](C)(Cc1ccc(F)cc1)CN1CCCCC1    1.714
CC12CC3CC(C)(C1)CC(N)(C3)C2 [memantine]    1.593
COc1ccc(C(CN(C)C)C2(O)CCCCC2)cc1 (stereo not drawn)    0.250
Cc1ccc(C(=O)C(C)CN2CCCCC2)cc1 (stereo not drawn)    0.944

Consider the record given below.
Problem: Which Ratio Reversibility value belongs to CN1CCN2c3ncccc3Cc3ccccc3C2C1 (stereo not drawn) ?
Result: 0.495

---

molecular target: rNav1.2 sodium channels (Rattus norvegicus); construct: host or cells: HEK-293; experiment: QPatch automated patch clamp, inhibition of sodium currents evoked by 5 Hz trains at three extracellular pH values; type: cell-based; details: pH=7.3; cc 30 mM
The compounds listed here are annotated with their Reversibility.
Output spec: single numeric token, no unit.

# example entries with known answers
CC12CC3CC(C)(C1)CC(N)(C3)C2 [memantine]    0.86
CNCCCN1c2ccccc2CCc2ccccc21    0.42
Fc1ccc([C@@H]2CCNC[C@H]2COc2ccc3c(c2)OCO3)cc1    0.39
Cc1nc2sccn2c(=O)c1CCN1CCC(=C(c2ccc(F)cc2)c2ccc(F)cc2)CC1    0.37
CN(C)CCC=C1c2ccccc2CCc2ccccc21    0.55
CN(C)CCCN1c2ccccc2Sc2ccc(Cl)cc21    0.28

Problem: Notebook entry, rNav1.2 sodium channels (Rattus norvegicus) assay: Reversibility of Nc1nc2ccc(OC(F)(F)F)cc2s1 = ?
Result: 0.73

Problem: API: value(readout=Reversibility, system=rNav1.2 sodium channels (Rattus norvegicus)) for record CCc1nn(CCCN2CCN(c3cccc(Cl)c3)CC2)c(=O)n1CCOc1ccccc1
Result: 0.59

---

Target: rNav1.2 sodium channels (Rattus norvegicus, UniProt P04775)
Construct: host or cells: HEK-293
Assay: QPatch automated patch clamp, inhibition of sodium currents evoked by 5 Hz trains at three extracellular pH values
Type: cell-based
Details: apparent affinity, pH 8.6; single concentration (lidocaine 300 μM, memantine 30 μM); geometric mean of 5
Procedure: HEK-293 cells stably expressing rNav1.2 sodium channels were obtained from NeuroSearch (Ballerup, Denmark). The cells were grown in Dulbecco's modified Eagle medium supplemented with 10% FBS. Prior to use, the cells were trypsinized and subsequently kept in suspension in the QPatch cell storage facility in CHO-S- SFM-II medium. […] Data were sampled at a frequency of 25 kHz and filtered at 5 kHz. Junction potential was calculated to be −11 mV and was corrected for. […]
measured_attribute: pKd
# reply with the number alone; pKd is -log10 of concentration in mol/L

Problem: Endpoint output: pKd of COc1ccc(C(CN(C)C)C2(O)CCCCC2)cc1 (centres unmarked) [venlafaxine] . Value?
Result: 3.76

Problem: Looking for the measured pKd of CNCCC(Oc1ccccc1OC)c1ccccc1 (centres unmarked) [nisoxetine] , can you help?
Result: 4.54
